Where these numbers come from: PubChem BioAssay (NCI)

Experiment: NCI Yeast Anticancer Drug Screen. Data for the cln2 rad14 strain (AID 165);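 further: 0% = growth equal to vehicle treated cultures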
Conditions: S. cerevisiae cln2 rad14 strain, at 50.0 µM, active compounds read high
About 79,000 compounds went through this panel and 15% of them were active in at least one assay; those are over-represented in the sample as a whole.
Param threshold (60%) applies to growth inhibition; output Fulfilled when value >= threshold, Not fulfilled when value < threshold.

Given Cc1cc(Cl)ccc1NC(=O)CC1SC(=NC(=O)c2ccccc2Cl)NC1=O (stereo unspecified) , state whether its growth inhibition is at least 60%. Fulfilled

Given `O=c1cccccc1[O-].O=c1cccccc1[O-].O=c1cccccc1[O-].[Nd+3]` , state whether its growth inhibition is at least 60%. Fulfilled

Given `Cc1cc(NS(=O)(=O)c2ccc(N)cc2)no1.[Ag]` , state whether its growth inhibition is at least 60%. Fulfilled

Given CCCCCCC(O)CCOC(C)=O (stereo unspecified) , state whether its growth inhibition is at least 60%. Not fulfilled

Given COc1cccc2c1C(=O)c1c(O)c3c(c(O)c1C2=O)CC(O)(C(=O)CO)CC3OC1CC(N)C(I)C(C)O1 (stereo unspecified) , state whether its growth inhibition is at least 60%. Fulfilled

Given `C[n+]1cccc2c1-c1ccccc1C2=O` , state whether its growth inhibition is at least 60%. Not fulfilled

Given `Cc1c(CCCl)c(N=[N+]=[N-])n2c(nc3ccccc32)c1C#N` , state whether its growth inhibition is at least 60%. Fulfilled

Given `O=C(O)/C=C/C(=O)NNc1nc2ccccc2s1` , state whether its growth inhibition is at least 60%. Not fulfilled

Given `Cc1csc2[n+]1C(=O)/C(=C\c1ccc([N+](=O)[O-])cc1)S2` , state whether its growth inhibition is at least 60%. Not fulfilled

Given `Clc1nc(Cl)nc(N2CCCc3ccccc32)n1` , state whether its growth inhibition is at least 60%. Fulfilled

====

Field: growth inhibition. Provide a value for each of the compounds that follow.
Assay: NCI Yeast Anticancer Drug Screen. Data for the mlh1 rad18 strain (AID 175)
Settings: S. cerevisiae mlh1 rad18 strain growth inhibition; at 5.0 µM (retest, dose inferred, filed as 0.5); active compounds read high
The panel holds about 79,000 compounds, 15% with a hit somewhere; the sample as a whole holds those more often.
Answer in %, number only, no unit symbol.

Dear colleague, I am looking for the recorded growth inhibition of the following compound: `c1ccc(-c2ccc(-c3cnc(-c4ccc(-c5ccccc5)cc4)o3)cc2)cc1` -6

Dear colleague, I am looking for the recorded growth inhibition of the following compound: CC(C)CCCC(=O)CCCCCCC(=O)CCN(O)C(=O)C(N)CO (stereo unspecified) 98

Dear colleague, I am looking for the recorded growth inhibition of the following compound: O=C(O)CCC12CCCCC1=NC1(CCCCC1)NC2=O (stereo unspecified) 1

Dear colleague, I am looking for the recorded growth inhibition of the following compound: `Cc1c2ccccc2cc2c1ccc1cccc(F)c12` 10

Dear colleague, I am looking for the recorded growth inhibition of the following compound: CN(Cc1cnc2nc(N)nc(N)c2n1)c1ccc(C(=O)NC(CCC(=O)O)C(=O)O)cc1C(F)(F)F (stereo unspecified) 0

Dear colleague, I am looking for the recorded growth inhibition of the following compound: CN1C=COC1N=C1CCCCC1 (stereo unspecified) -13

Dear colleague, I am looking for the recorded growth inhibition of the following compound: `O=[N+]([O-])c1ccc(C(Br)(Br)c2ccc([N+](=O)[O-])cc2)cc1` 93

Dear colleague, I am looking for the recorded growth inhibition of the following compound: `O=C1C=CC(=C(c2ccccc2)c2ccc(O)cc2)C=C1` 2

Dear colleague, I am looking for the recorded growth inhibition of the following compound: `CCCCCCCC[N+](C)(CCCCCCCC)CCCCCCCC` 41

Dear colleague, I am looking for the recorded growth inhibition of the following compound: `CCCc1cc(=O)oc2c3c(c4c(c12)OC(C)(C)CC4)O[C@H](C)[C@H](C)C3=O` -5

Dear colleague, I am looking for the recorded growth inhibition of the following compound: `c1ccc(N2CCN(c3ccccc3)C2Cc2c[nH]c3ccccc23)cc1` 61

====

Assay: NCI Yeast Anticancer Drug Screen. Data for the bub3 strain (AID 167)
Conditions: S. cerevisiae bub3 mutant strain, at 50.0 µM
This is part of a sample that, as a whole, favours compounds with a hit. Of some 79,000 tested, about 15% had one in any assay. The source made the active and inactive calls. No stated cut-off is given here; in the data, active means growth inhibition above about 70%; inactive means the rest. Where a SMILES comes first, the peptide text is derived from it. Bridges are numbered along the chain shown (N, C = ends). [ ]: non-standard residue; d: D form. NMeV = CN[CH](C(=O)O)C(C)C; Sar = CNCC(=O)O
Please answer using one outcome listed in active, inactive

What did the test return for `Cc1c(Cl)cccc1NC(=O)/C(Cl)=C(\Cl)C(=O)O` ? active

What did the test return for O=C1CC(c2ccccc2)NN1 (stereo unspecified) ? active

What did the test return for `Cc1ccc(C2=Nc3c(c(C)nn3-c3ccccc3)N=C(C(=O)O)C2)cc1` ? active

What did the test return for CC(CN(C)C)C(/C=C/c1ccc(Cl)cc1)=N\NC(=O)c1ccccc1 (stereo unspecified) ? inactive

What did the test return for CC(C)C1NC(=O)C(N)C(C)OC(=O)C(C(C)C)N(C)C(=O)CN(C)C(=O)C2CCCN2C1=O (stereo unspecified) (tested in a mixture with another compound) (H-TVP[Sar][NMeV]; ester 1-C; configuration not given here) ? active

What did the test return for `CCCC(=O)Oc1ccc(-c2ccc(Br)cc2)cc1` ? active

What did the test return for `C/C(C=C(C#N)C#N)=C\c1ccc([N+](=O)[O-])cc1` ? inactive

What did the test return for `O=S(=O)(SCc1ccccc1)C(c1ccccc1)c1ccccc1` ? active

What did the test return for `C[CH2][Sn]([CH2]C)([O]C(=O)c1ccccc1OC)[O][Sn]([CH2]C)([CH2]C)[O]C(=O)c1ccccc1OC` ? inactive

What did the test return for `Cc1nc2ccc3c(ccc4nc(C)c(N=Nc5ccc(C(=N)N)cc5)c(O)c43)c2c(O)c1N=Nc1ccc(C(=N)N)cc1` ? active

What did the test return for `Nc1nc(N)c2nc(Sc3ccc(F)cc3)c(N)nc2n1` ? inactive

What did the test return for `O=[N+]([O-])c1ccc(Sc2ccc([N+](=O)[O-])o2)o1` ? active

What did the test return for Cc1ccc(NC(=O)CC2SC(N)=NC2=O)cc1C (stereo unspecified) ? active

What did the test return for Clc1ccc(OCC2CO2)c(Cl)c1 (stereo unspecified) ? inactive

What did the test return for CC(NNC(=S)N1CCCC1)c1ccc2ccccc2n1 (stereo unspecified) ? active

What did the test return for COC(=O)C1C(=O)CC(c2ccccc2)C1c1ccccc1 (stereo unspecified) ? inactive

What did the test return for `COc1ccc(C(=O)c2cc(Br)ccc2O)cc1` ? active

What did the test return for CCCCCC(C1SC(=S)NC1=O)C1SC(=S)NC1=O (stereo unspecified) ? active

What did the test return for `N#C/C(=C\NC(=S)Nc1cc(Cl)ccc1Cl)c1nc2ccccc2s1` ? inactive

What did the test return for `O=C(O)CCCc1ccc2c(c1)CC1(C2)Cc2ccc(CCCC(=O)O)cc2C1` ? inactive

What did the test return for Cc1ccc(SCN2CCCCC2)cc1 (tested in a mixture with another compound) ? inactive

====

Assay: NCI Yeast Anticancer Drug Screen. Data for the mec2-1 strain (AID 157)
Details: S. cerevisiae mec2-1 strain, at 50.0 µM (retest, dose inferred, filed as 5.0), active compounds read high
About 79,000 compounds went through this panel and 15% of them were active in at least one assay; those are over-represented in the sample as a whole. The source made the active and inactive calls. No stated cut-off is given here; in the data, active means growth inhibition above about 70%; inactive means the rest.
Field: growth inhibition. Provide a value for each of the compounds that follow.

Dear colleague, I am looking for the recorded growth inhibition of the following compound: Cc1ccc(NC(=O)CC2SC(N)=NC2=O)cc1C (stereo unspecified) 8% (inactive)

Dear colleague, I am looking for the recorded growth inhibition of the following compound: `Cc1cc(NC(=S)SCc2ccc(Cl)cc2)c([N+](=O)[O-])cc1C` 97% (active)

Dear colleague, I am looking for the recorded growth inhibition of the following compound: `COc1ccc2ccccc2c1-c1c(O)ccc2ccccc12` 71% (active)

Dear colleague, I am looking for the recorded growth inhibition of the following compound: CC/C(=C1\C=CC(=O)S1)C(CC)c1ccc(OC(C)=O)cc1 (stereo unspecified) 99% (active)

Dear colleague, I am looking for the recorded growth inhibition of the following compound: `S=C(CSc1ccccc1)Nc1cccc2ccccc12` 51% (inactive)

Dear colleague, I am looking for the recorded growth inhibition of the following compound: CNc1ccc(C(=O)NC(CCCCNC(=O)OCc2ccccc2)C(=O)OC)cc1 (stereo unspecified) 10% (inactive)

Dear colleague, I am looking for the recorded growth inhibition of the following compound: `COc1ccc(C2=C(Cl)C(=O)N(c3ccc(C)cc3)C(=O)C2(Cl)Cl)cc1` 36% (inactive)

Dear colleague, I am looking for the recorded growth inhibition of the following compound: `O=S(=O)(SCc1ccccc1)C(c1ccccc1)c1ccccc1` 6% (inactive)

Dear colleague, I am looking for the recorded growth inhibition of the following compound: COc1ccc(C(c2c(O)c3ccccc3oc2=O)N2CCOCC2)cc1 (stereo unspecified) -6% (inactive)

Dear colleague, I am looking for the recorded growth inhibition of the following compound: `O=[N+]([O-])/C(Br)=C\c1ccc([N+](=O)[O-])cc1` 100% (active)

Dear colleague, I am looking for the recorded growth inhibition of the following compound: `C[n+]1cccc2c1-c1ccccc1C2=O` 22% (inactive)
